Molecular target: hMAO B (Homo sapiens)
Sequence (P27338 1-520): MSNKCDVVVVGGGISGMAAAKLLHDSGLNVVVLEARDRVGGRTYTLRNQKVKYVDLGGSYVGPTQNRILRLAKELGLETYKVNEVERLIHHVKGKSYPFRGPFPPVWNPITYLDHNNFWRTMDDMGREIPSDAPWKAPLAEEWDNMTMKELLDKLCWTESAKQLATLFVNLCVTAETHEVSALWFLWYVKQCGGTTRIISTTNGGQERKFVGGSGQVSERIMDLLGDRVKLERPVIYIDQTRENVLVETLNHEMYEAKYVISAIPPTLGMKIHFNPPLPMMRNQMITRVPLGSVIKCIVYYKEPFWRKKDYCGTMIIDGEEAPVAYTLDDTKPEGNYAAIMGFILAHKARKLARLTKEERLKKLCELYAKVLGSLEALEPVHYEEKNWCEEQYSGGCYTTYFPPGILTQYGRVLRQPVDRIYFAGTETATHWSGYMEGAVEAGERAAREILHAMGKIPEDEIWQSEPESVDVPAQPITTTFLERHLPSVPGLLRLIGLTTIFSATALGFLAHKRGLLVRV
Task for the reader: assign each of the following compounds its reported IC50.
API: value field is a number in µM; no unit string.

Record O=C(N/N=C/c1ccc(-c2ccc([N+](=O)[O-])cc2)o1)c1ccncc1 [Compound 2] . Reported IC50: 3.56

Value of measured IC50 for the entry COc1cc(C=NNC(=O)c2cccs2)ccc1-c1ccc(C#N)cc1 [Compound 13] : 2.32

Short answer for N#Cc1ccc(-c2ccc(C=NNC(=O)Cc3ccccc3)o2)cc1 [Compound 8] : IC50 was 3.61

The value of IC50 measured for the compound CC(=O)NN=Cc1ccc(-c2ccc(C#N)cc2)o1 [Compound 6] turned out to be 2.65

// IC50 value for CN1CCN(N=Cc2ccc(-c3ccc([N+](=O)[O-])cc3)o2)CC1 [Compound 3] : 3.15

For record O=C(NN=Cc1ccc(-c2ccc([N+](=O)[O-])cc2)o1)c1cccs1 [Compound 1] the listed IC50 is 3.67

IC50 recorded for this compound, COc1cccc(/C=N/NC(=O)c2ccncc2)c1 [Compound 19] , is 12.2

Entry N#Cc1ccc(-c2ccc(/C=N/NC(=O)c3ccncc3)o2)cc1 [Compound 5] ; IC50 = 12.6

get_value(item= N#Cc1ccc(-c2ccc(/C=N/c3ccc(O)cc3Cl)o2)cc1 [Compound 9] , readout=IC50) returns 0.68

IC50 in this record for N#Cc1ccc(-c2ccc(C=NNC(=O)c3cccs3)o2)cc1 [Compound 4] : 2.63

Documented IC50 of COc1cccc(C=NNc2ccc(S(N)(=O)=O)cc2)c1 [Compound 20] : 0.81

* * *

Assay: RP-HPLC lipophilicity index log k’
Assay type: physicochemical
Conditions: MeOH/phosphate buffer pH 7.4; methanol/PBS 60:40 v/v
log k’ (logarithm of capacity factor, RP-HPLC) vs 0.5: at or above is Y, below is N.

Query :: Is log k’ (logarithm of capacity factor, RP-HPLC) at least 0.5? Consider O=C1CN(/N=C/c2ccco2)C(=O)N1
Result :: N

Query :: Form field: log k’ (logarithm of capacity factor, RP-HPLC) at least 0.5? Entry: N#Cc1ccc(-c2ccc(/C=N/c3ccc(O)cc3Cl)o2)cc1
Result :: Y

Query :: Hi, just wondering whether COc1cc(C=NNC(=O)c2cccs2)ccc1-c1ccc(C#N)cc1 shows log k’ (logarithm of capacity factor, RP-HPLC) of 0.5 or higher.
Result :: Y

Query :: State whether the measured log k’ (logarithm of capacity factor, RP-HPLC) reaches 0.5, counting equality as reaching it, for O=C1CN(/N=C/c2ccc(-c3ccc([N+](=O)[O-])cc3)o2)C(O)=N1
Result :: N

Query :: Does the reported log k’ (logarithm of capacity factor, RP-HPLC) for N#Cc1ccc(-c2ccc(/C=N/NC(=O)c3ccncc3)o2)cc1 fall at or above the 0.5 mark?
Result :: N

Query :: Hi, just wondering whether O=C(N/N=C/c1ccc(-c2ccc([N+](=O)[O-])cc2)o1)c1ccncc1 shows log k’ (logarithm of capacity factor, RP-HPLC) of 0.5 or higher.
Result :: Y

Query :: Does the reported log k’ (logarithm of capacity factor, RP-HPLC) for O=C(NN=Cc1ccc(-c2ccc([N+](=O)[O-])cc2)o1)c1cccs1 fall at or above the 0.5 mark?
Result :: Y

Query :: Item COc1cccc(C=NNc2ccc(S(N)(=O)=O)cc2)c1 with log k’ (logarithm of capacity factor, RP-HPLC) of 0.5 or above?
Result :: N

Query :: Is reported log k’ (logarithm of capacity factor, RP-HPLC) greater than or equal to 0.5 here: CN1CCN(N=Cc2ccc(-c3ccc([N+](=O)[O-])cc3)o2)CC1
Result :: Y

Query :: Assess whether reported log k’ (logarithm of capacity factor, RP-HPLC) for O=C(N/N=C/c1ccco1)c1cccs1 sits at 0.5 or higher.
Result :: N

Query :: Entry CC(=O)NN=Cc1ccc(-c2ccc(C#N)cc2)o1 : is its log k’ (logarithm of capacity factor, RP-HPLC) no less than 0.5?
Result :: N

Query :: log k’ (logarithm of capacity factor, RP-HPLC) >= 0.5 for COc1cccc(/C=N/NC(=O)c2ccncc2)c1 ?
Result :: N

Query :: Form field: log k’ (logarithm of capacity factor, RP-HPLC) at least 0.5? Entry: N#Cc1ccc(-c2ccc(C=NNC(=O)Cc3ccccc3)o2)cc1
Result :: Y

Query :: # bool: log k’ (logarithm of capacity factor, RP-HPLC) of N#Cc1ccc(-c2ccc(/C=N/Nc3ccc(S(N)(=O)=O)cc3)o2)cc1 >= 0.5
Result :: N

* * *

Molecular target: hAChE (Homo sapiens, UniProt P22303)
Construct: purchased Sigma Aldrich
Sequence (P22303 32-614): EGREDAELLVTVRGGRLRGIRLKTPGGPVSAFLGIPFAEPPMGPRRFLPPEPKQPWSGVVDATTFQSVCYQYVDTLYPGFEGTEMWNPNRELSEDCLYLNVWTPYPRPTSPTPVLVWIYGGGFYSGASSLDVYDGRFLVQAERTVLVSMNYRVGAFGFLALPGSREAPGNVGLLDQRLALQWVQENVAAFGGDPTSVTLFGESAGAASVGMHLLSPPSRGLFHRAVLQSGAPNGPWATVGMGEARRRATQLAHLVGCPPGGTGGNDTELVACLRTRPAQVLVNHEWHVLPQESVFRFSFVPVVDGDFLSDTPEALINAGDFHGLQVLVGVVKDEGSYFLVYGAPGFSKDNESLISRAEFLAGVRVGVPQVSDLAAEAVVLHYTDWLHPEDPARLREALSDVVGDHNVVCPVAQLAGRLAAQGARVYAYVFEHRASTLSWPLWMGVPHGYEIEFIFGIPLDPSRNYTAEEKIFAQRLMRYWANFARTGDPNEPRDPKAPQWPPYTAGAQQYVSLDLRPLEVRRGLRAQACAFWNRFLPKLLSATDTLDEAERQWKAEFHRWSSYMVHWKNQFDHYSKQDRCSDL
Experiment: biochemical
Conditions: read-out: % inhibition at 10 μM hAChE
Kindly state inhibition at 10 µM for each of the entries shown.
Kindly answer with a numeric value in %, unit omitted.

// field: inhibition at 10 µM; key: COc1cc(C=NN2CC(=O)NC2=O)cc(OC)c1OC ; value = 28

compound N#Cc1ccc(-c2ccc(/C=N/NC(=O)c3ccncc3)o2)cc1 , inhibition at 10 µM observed: 27

Sure, the documented inhibition at 10 µM for COc1cc(C=NNC(=O)c2cccs2)ccc1-c1ccc(C#N)cc1 is 35

N#Cc1ccc(-c2ccc(C=NNC(=O)c3cccs3)o2)cc1 yielded inhibition at 10 µM of 51

Reported inhibition at 10 µM of CC(=O)NN=Cc1ccc(-c2ccc(C#N)cc2)o1 : 38

Form field inhibition at 10 µM, entry N#Cc1ccc(-c2ccc(C=NNC(=O)Cc3ccccc3)o2)cc1 : 16

So, O=C(Cc1ccccc1)NN=Cc1ccco1 ? Its inhibition at 10 µM was 52

Reported inhibition at 10 µM for O=C(NN=Cc1ccc(-c2ccc([N+](=O)[O-])cc2)o1)c1cccs1 was 40

// inhibition at 10 µM value for CN1CCN(N=Cc2ccc(-c3ccc([N+](=O)[O-])cc3)o2)CC1 : 44

Entry O=C(N/N=C/c1ccc(-c2ccc([N+](=O)[O-])cc2)o1)c1ccncc1 — recorded inhibition at 10 µM = 30

* * *

For each record, write down the corresponding inhibition at 10 µM.
Biological target: hMAO A (Homo sapiens, UniProt P21397)
Construct: purchased Sigma Aldrich
Sequence (P21397 whole entry): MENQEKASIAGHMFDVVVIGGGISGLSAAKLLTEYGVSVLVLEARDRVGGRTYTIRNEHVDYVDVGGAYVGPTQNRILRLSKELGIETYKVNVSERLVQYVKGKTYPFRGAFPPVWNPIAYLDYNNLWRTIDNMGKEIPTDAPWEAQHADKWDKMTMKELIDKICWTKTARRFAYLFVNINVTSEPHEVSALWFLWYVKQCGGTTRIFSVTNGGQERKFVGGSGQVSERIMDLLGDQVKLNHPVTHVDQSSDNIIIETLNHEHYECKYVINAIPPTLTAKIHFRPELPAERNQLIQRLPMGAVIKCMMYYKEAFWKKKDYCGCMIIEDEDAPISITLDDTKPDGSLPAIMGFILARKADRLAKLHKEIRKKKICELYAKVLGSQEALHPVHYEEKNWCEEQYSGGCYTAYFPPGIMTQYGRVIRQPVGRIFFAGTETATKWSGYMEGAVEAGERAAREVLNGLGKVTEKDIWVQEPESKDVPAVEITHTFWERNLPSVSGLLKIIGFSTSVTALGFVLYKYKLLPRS
Assay: biochemical
Conditions: read-out: % inhibition at 10 μM hMAO A

# compound N#Cc1ccc(-c2ccc(/C=N/N3CC(=O)NC3=O)o2)cc1 ; its inhibition at 10 µM = 40%

Data point: O=C(N/N=C/c1ccco1)c1cccs1 ; inhibition at 10 µM = 16%

Input CS(=O)(=O)c1ccc(NN=Cc2ccc(-c3ccc(C#N)cc3)o2)cc1 . Output inhibition at 10 µM: 11%

Reported inhibition at 10 µM ( O=C(Cc1ccccc1)NN=Cc1ccco1 ) = 22%

Data point: CN1CCN(N=Cc2ccco2)CC1 ; inhibition at 10 µM = 18%

Lab note: COc1cccc(C=NNc2ccc(S(N)(=O)=O)cc2)c1 gave inhibition at 10 µM of 42%

Value of measured inhibition at 10 µM for the entry O=C1CN(/N=C/c2ccco2)C(=O)N1 : 11%

Lab note: COc1cccc(/C=N/NC(=O)c2ccncc2)c1 gave inhibition at 10 µM of 19%

# compound O=C(NN=Cc1ccc(-c2ccc([N+](=O)[O-])cc2)o1)c1cccs1 ; its inhibition at 10 µM = 33%

Noted for NS(=O)(=O)c1ccc(NN=Cc2ccco2)cc1 : its inhibition at 10 µM reads 25%

Value of measured inhibition at 10 µM for the entry COc1cc(C=NN2CC(=O)NC2=O)cc(OC)c1OC : 8%

Just so you know, measured inhibition at 10 µM for COc1ccc(N/N=C/c2ccc(-c3ccc(C#N)cc3)o2)cc1 came out at 47%

Value of inhibition at 10 µM reported for the compound COc1cc(C=NNC(=O)c2cccs2)ccc1-c1ccc(C#N)cc1 is 29%
